# Tested on: Plasmodium falciparum
# experimental.details: GSK_TCMDC: Inhibition of Plasmodium falciparum 3D7 in whole erythrocytes, using parasite LDH activity as an index of growth.
# Format: functional, organism-based
# condition.label: Plasmodium falciparum, 3D7
reported.property: XC50 (nM)
Answers are plain numbers, in nM.

smiles.structure	test.system	unit.text	recorded.value
Cc1nc(-c2ccncc2)sc1C(=O)Nc1ccc(Cl)cc1C(=O)Nc1ccc(Cl)cc1	Plasmodium falciparum	nM	759
Cc1nc2nc(N)nc(N)c2c(C)c1Cc1ccc([N+](=O)[O-])cc1	Plasmodium falciparum	nM	438
CNCCNCc1ccc(-c2ccc(-c3nc4ccccc4[nH]3)s2)cc1	Plasmodium falciparum	nM	865

O=C1CSc2ccc(CNC3CCN(CCc4c(F)cnc5ccc(F)cc45)CC3)nc2N1 yielded XC50 of 525

---

Provide the reported XC50 of each item.
# System: Plasmodium falciparum
# experimental.details: GSK_TCMDC: Inhibition of Plasmodium falciparum 3D7 in whole erythrocytes, using parasite LDH activity as an index of growth.
# Format: functional, organism-based
# condition.label: Plasmodium falciparum, 3D7
Numbers only, in nM.

molecule	unit.text	recorded.value
COc1cc2c(=O)c(Cc3ccc(Cl)cc3)c(C)[nH]c2cc1F	nM	1160
COc1cc2nc(N3CCC(CNC(=O)c4ccc(-c5ccc(C(=O)N(C)C)cc5OCCN(C)C)cc4)CC3)nc(N)c2cc1OC	nM	842
CSc1ccc(CN2CCC(NC(=O)c3ccc(-c4cccc(C(F)(F)F)c4)s3)CC2)cc1	nM	1220
CC[C@H]1CN2CC[C@H]1C[C@H]2[C@H](O)c1cc(-c2ccc(OC(F)(F)F)cc2)nc2ccc(OC)cc12	nM	51.1
COc1ccc(C#Cc2ccc(-c3c(C)[nH]c(C)c(Cl)c3=O)cc2)cc1	nM	66.5

Please report XC50 for every entry that follows.
1. CCOC(=O)[C@H](Cc1cc([N+](=O)[O-])c(Oc2ccc(OC)c(Cc3ccc(OC)c(C(C)C)c3)c2)c([N+](=O)[O-])c1)NC(=O)C(F)(F)F
2. O=S(=O)(NCCN1CCCC1)c1ccc(-c2ccc(CNCc3ccccc3)cc2)s1
3. CNc1ccc(CNCc2cccc(-c3ccc(-c4nc5ccccc5[nH]4)cc3)c2)cc1
4. CN1CCc2cc(NS(=O)(=O)c3ccc(-c4ccc(Cl)cc4)cc3)c(OCCCN3CCCCC3)cc2CC1

Return:
[984, 849, 300, 961]

Report XC50 for each item below.
1. O=C(Cn1cnc2c(nnn2Cc2ccccc2F)c1=O)Nc1ccc2c(c1)OCCO2
2. Cc1cccc2nc(-c3ccc(-c4cccc(NCc5cn6cccnc6n5)c4)cc3)[nH]c12
3. CSc1cccc(Nc2nc3ccc(S(=O)(=O)NCC(C)C)cc3n2C(C)C(C)C)c1 (centres undefined)
4. COc1ccc2nccc([C@@H](O)CN3CCC(NC(=O)C(c4cc5ccccc5o4)N4CCN(Cc5ccccc5)CC4)CC3)c2c1 (some centres undefined)
5. O=C(Nc1ccc(-c2nc3ccccc3[nH]2)cc1)c1ccc([N+](=O)[O-])s1

Return:
949
787
824
163
252

---

# System: Plasmodium falciparum
# experimental.details: GSK_TCMDC: Inhibition of Plasmodium falciparum 3D7 in whole erythrocytes, using parasite LDH activity as an index of growth.
# Type: functional, organism-based
# condition.label: Plasmodium falciparum, 3D7
Give measured XC50 for each item. Keep answers brief.

Observe how each entry below is paired with its result.
molecule	test.system	recorded.value
Oc1ccc(CCNc2nc(NCc3ccccc3-c3ccc(C(F)(F)F)cc3)nc(N3CCNCC3)n2)cc1	Plasmodium falciparum	866 nM
Cc1ccc(S(=O)(=O)NC(=N)NC(N)=O)cc1	Plasmodium falciparum	794 nM

The following molecules each have a reported value; give each one's XC50.
1. COC(=O)c1ccc(CC(C)NCC(O)c2cccc3ccccc23)cc1 (configuration not stated)
2. Cn1c(NC(=O)C2CCC(CNC(=O)c3ccc(O)c(-c4cccc([N+](=O)[O-])c4)c3)CC2)nc2ccccc21 (configuration not stated)
3. O=C(Nc1ccc(-c2cccc(-c3nc4cc(F)ccc4[nH]3)c2)cc1)Nc1ccc(Cl)c(Cl)c1
4. CCOC(=O)c1ccc(-c2c(C(F)(F)F)noc2-c2cc(CC)c(OC)cc2O)o1

Return:
935 nM
982 nM
647 nM
206 nM

Dear colleague, could you please provide XC50 for the molecules listed below?
1. Cc1ccccc1N1CCN(c2ncc(C(=O)NC3CC3)cc2Cl)CC1
2. CN(C)CCOc1ccc2nc(-c3cccc(OCc4ccccc4)c3)[nH]c2c1C#N

Return:
["628 nM", "256 nM"]

Respectfully, I request XC50 for each entry included below.
1. Cc1ccccc1C1CCN(C2CCC(NC(=O)/C=C/c3cc(C(F)(F)F)ccc3F)CC2)CC1 (configuration not stated)
2. O=C(NOCCOc1ccccc1)c1ccccc1
3. CC[C@H]1CN(Cc2ccccc2Br)CC[C@H]1CCCc1ccnc2ccc(O)cc12
4. COc1ccc2nccc([C@@H](O)CN3CCC(NC(=O)c4[nH]c5ccccc5c4-c4ccccc4)CC3)c2c1

Return:
839 nM
317 nM
1000 nM
904 nM

---

# System: Plasmodium falciparum
# experimental.details: GSK_TCMDC: Inhibition of Plasmodium falciparum 3D7 in whole erythrocytes, using parasite LDH activity as an index of growth.
# Assay type: functional, organism-based
# condition.label: Plasmodium falciparum, 3D7
reported.property: log10 of XC50 (log10 of the value in nM)
Reminder: these figures are log10 of reported XC50, in nM before transformation.

compound	log10 of XC50
C=Cc1cc(OC)c2c(c1)c(=O)oc1c2cc(OC)c2c(O)ccc([C@H]3O[C@H]([C@H](C)O)[C@H](O)[C@H]3O)c21	2.90
COc1ccc2ncc(F)c(CCN3CC[C@@H](CNCc4cc5c(cn4)OCS5)C3)c2n1	3.06
CCc1cn2c3c(cc(C(=O)N[C@@H](Cc4ccccc4)[C@H](O)CNC(C)(C)c4cccc(OC)c4)cc13)N(C)S(=O)(=O)C2	1.79
FC(F)(F)c1ccc2[nH]c(-c3cccc(-c4cccc(CNCCc5ccncc5)c4)c3)nc2c1	2.15
Oc1cccc(C2CCCN(Cc3cccc4cc[nH]c34)C2)c1 (stereo not drawn)	2.71

Below are 8 compounds. Give each one its log10 of XC50.
1. Cc1cccc(CNc2nc(C)cc(N[C@@H](Cc3ccccc3)C(=O)NCCc3ccccc3)n2)c1
2. O=C(Nc1cccc(CN2CCCN(Cc3ccc(O)cc3)CC2)c1)c1ccc(-c2ccccc2)cc1
3. NC(=O)c1cccc(C(=O)Nc2ccc(-c3cccc(-c4nc5cc(F)ccc5[nH]4)c3)cc2)c1
4. CC(C)c1cc(Oc2c(I)cc(CCCc3ncc[nH]3)cc2I)ccc1O
5. COc1c(C=NNc2nc(=Nc3ccccc3)[nH]c(=Nc3ccccc3)[nH]2)ccc(Br)c1O
6. COc1ccc(CNc2ccnc3cc(OC)ccc23)cc1
7. N#Cc1ccc(N2CCN(Cc3ccc(-c4ccc(-c5nc6ccccc6[nH]5)s4)cc3)CC2)nc1
8. COc1ccc(CCN(C)CCCN2CCC(NC(=O)c3cccc4c(=O)c5ccccc5sc34)CC2)cc1OC

Return:
2.83
2.53
2.94
3.05
2.86
2.88
3.03
2.90

---

# Test system: Plasmodium falciparum
# experimental.details: GSK_TCMDC: Inhibition of Plasmodium falciparum 3D7 in whole erythrocytes, using parasite LDH activity as an index of growth.
# Type: functional, organism-based
# condition.label: Plasmodium falciparum, 3D7
For each of the compounds below, state its log10(XC50).
Reminder: these figures are log10 of reported XC50, in nM before transformation.

The examples below pair each entry with its known result.
compound	log10(XC50)
CC(C)=CCN1CCC(C(=O)Nc2ccc(-c3nc4ccccc4[nH]3)cc2)CC1	2.96
Nc1ncc(-c2ccccc2)cc1/C=C/c1cccnc1	3.05
COc1ccccc1N1CCN(CCCCN(C(=O)Nc2cccc(Cl)c2)C(=O)Nc2cccc(Cl)c2)CC1	2.85
Cc1cc(C(=O)Nc2ccc(OCc3ccccc3)cc2)on1	3.00
O=C(NC1CCN(c2ccnc3cc(Cl)ccc23)C1)c1ccc(F)cc1F (centres undefined)	2.57
COc1cc(C(=O)N2CCOC(CCN3CCc4c(c5ccccc5n4C)C3)(c3ccc(Cl)c(Cl)c3)C2)cc(OC)c1OC (centres undefined)	2.55

Quick batch: log10(XC50) for everything below.
1. Fc1ccc2[nH]c(-c3ccc(-c4ccc(CNCCc5ccncc5)cc4)cc3)nc2c1
2. Fc1ccc2[nH]c(-c3cccc(-c4ccc(CN5CCN(c6cnccn6)CC5)cc4)c3)nc2c1

Return:
1: 2.15; 2: 2.95

Could I get log10(XC50) for every one of these entries?
1. CN1CCC[C@H]1COc1ccc(CN2CC[C@H](NC(=O)c3ccc(Cl)c(Cl)c3)C2)cc1Cl
2. CCN(c1cc(C)nc(Nc2ccc(Cl)cc2)n1)[C@H]1CCN(Cc2ccccc2)C1
3. COc1ccc(-c2cnc3ccc(NCCCO)nn23)cc1OC
4. Cn1cc(C2CCN(CCCCNC(=O)c3ccc(-c4ccc(C(F)(F)F)cc4)c(CO)c3)CC2)c2ccccc21
5. CCCCNCc1cc(Cl)c2ccccc2c1O
6. O=C(NCc1cccs1)[C@H](Cc1ccccc1)Nc1ccnc(NCCc2ccc(F)cc2)n1
7. CC1CCCN(C(=O)C(C)Nc2cc(Cl)ccc2N2CCOCC2)C1 (centres undefined)
8. COc1ccc(-c2nc3c(N)nc(N)nc3nc2C(C)C)cc1

Return:
3.06
2.93
2.83
3.00
2.66
3.16
2.50
2.27

Batch request: log10(XC50) for each of the following compounds.
1. COC(=O)c1cccc(NC(=O)NC2CCN(c3ccnc(Nc4ccc(OC)cc4)n3)C2)c1 (centres undefined)
2. CN1CC[C@@H](Oc2cc(C(=O)NCc3ccc(Cl)c(Cl)c3)ccc2C(F)(F)F)C1

Return:
1: 2.67; 2: 3.10

Form: compound = CN(Cc1ccccc1)C1CCN(CCc2c[nH]c3ccc(F)cc23)CC1 ; log10(XC50) = 2.78
